Provenance of the data: ChEMBL document CHEMBL1149787

Target: Cannabinoid receptor 1 (Rattus norvegicus, UniProt P20272)
Sequence (P20272 whole entry): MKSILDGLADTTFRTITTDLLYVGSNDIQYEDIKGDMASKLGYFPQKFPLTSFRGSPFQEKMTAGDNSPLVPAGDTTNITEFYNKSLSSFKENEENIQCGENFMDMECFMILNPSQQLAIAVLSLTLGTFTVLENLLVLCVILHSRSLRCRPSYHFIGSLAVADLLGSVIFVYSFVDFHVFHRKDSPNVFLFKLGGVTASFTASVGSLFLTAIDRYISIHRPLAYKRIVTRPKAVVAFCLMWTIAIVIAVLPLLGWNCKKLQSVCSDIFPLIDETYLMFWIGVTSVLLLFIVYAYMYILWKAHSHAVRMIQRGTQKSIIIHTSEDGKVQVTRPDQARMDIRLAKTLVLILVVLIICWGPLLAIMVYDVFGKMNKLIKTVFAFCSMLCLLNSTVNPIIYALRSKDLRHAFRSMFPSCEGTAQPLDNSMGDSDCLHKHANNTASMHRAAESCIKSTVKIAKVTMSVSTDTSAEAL
Classification by IC50 follows these ranges: lowest = under 3 µM, middle = from 3 µM up to 7 µM, highest = 7 µM and over

[
  {
    "compound": "c1ccc(Cc2noc(-c3cn(CCN4CCOCC4)c4ccccc34)n2)cc1",
    "group": "lowest"
  },
  {
    "compound": "Clc1ccccc1Cc1noc(-c2cn(CCN3CCOCC3)c3ccccc23)n1",
    "group": "highest"
  },
  {
    "compound": "c1ccc(Cc2noc(-c3cn(CCN4CCCCC4)c4ccccc34)n2)cc1",
    "group": "middle"
  },
  {
    "compound": "c1ccc(-c2ccc(-c3noc(-c4cn(CCN5CCOCC5)c5ccccc45)n3)cc2)cc1",
    "group": "lowest"
  },
  {
    "compound": "c1ccc(-c2noc(-c3cn(CCN4CCOCC4)c4ccccc34)n2)cc1",
    "group": "lowest"
  },
  {
    "compound": "O=C1NC(Cn2cc(-c3nc(Cc4ccccc4)no3)c3ccccc32)CO1 (stereo unspecified)",
    "group": "middle"
  },
  {
    "compound": "Brc1ccc(Cc2noc(-c3cn(CCN4CCOCC4)c4ccccc34)n2)cc1",
    "group": "middle"
  },
  {
    "compound": "CCCCCn1cc(-c2nc(Cc3ccccc3)no2)c2ccccc21",
    "group": "highest"
  },
  {
    "compound": "CCCCC(C)(C)c1cc(O)c2c(c1)OC(C)(C)[C@H]1CC=C(CO)C[C@H]21",
    "group": "middle"
  }
]
